Origin of measurements: PubChem BioAssay (NCI)

test system: HOP-92 NSCLC; assay: NCI tumour cell line growth inhibition, 48 h
OUTCOME MEASURE: TGI (µM)
Respond with the bare value in µM.

Observe how each entry below is paired with its result.
COMPOUND	UNIT DESCRIPTOR	TGI
O=C(NCCN1CCOCC1)c1ccc2cc(C(=O)N3CC(CCl)c4ccc([N+](=O)[O-])cc43)[nH]c2c1 (stereo not given)	µM	38.4
CCOC(=O)c1c(-c2ccc(OC)cc2)c(C#N)c(=S)n(C2OC(COC(C)=O)C(OC(C)=O)C(OC(C)=O)C2OC(C)=O)c1C (stereo not given)	µM	83.4
CCCCC1c2c([nH]c3ccccc23)C2C(=O)N(c3ccc(OC)cc3)C(=O)C2C1CCC (stereo not given)	µM	7.86
O=C(CNc1ccccc1Cl)Nn1c(-c2ccccc2)nc2ccccc2c1=O	µM	29.4
O=C1C(Cl)=C(Nc2ccccc2)C(=O)c2ccccc21	µM	2.64

Next up:
For record `CN(C)Cc1c[nH]c2c(NCCN)c3c(c(NCCN)c12)C(=O)c1ccccc1C3=O` the listed TGI is 5.49

* * *

test system: OVCAR-4 ovarian; experiment: NCI tumour cell line growth inhibition, 48 h
This listing pairs molecules with measured TGI.

Observe how each entry below is paired with its result.
MOLECULE	RESULT
COCCOCCOCc1n(Cc2ccc3ccccc3n2)c2ccccc2[n+]1Cc1ccc2ccccc2c1	7.42 µM
CCN(CC)CCNC(=O)c1cn2ncnc(Oc3ccc(NC(=O)Nc4ccc(Cl)c(C(F)(F)F)c4)c(F)c3)c2c1C	3.36 µM
COc1cc(C2CC(C)(Nc3ccccc3)Oc3cc4c(cc32)OCO4)cc(OC)c1OC (centres undefined)	> 78.5 µM
COc1ccc(Nc2nc3ccccc3nc2-c2cccs2)cc1	> 100 µM
CC(=O)N[C@H](C(=O)N[C@@H](CCCNC(=N)N)C(=O)N[C@@H](CCCCN)C(=O)N[C@@H](CCCNC(=N)N)C(=O)N[C@]1(C)CCCCCC/C=C\CCC[C@@](C)(C(=O)N[C@@H](CCCNC(=N)N)C(=O)N[C@@H](CCC(=O)O)C(=O)N[C@@H](CC(C)C)C(=O)N[C@H](C(=O)N[C@@H](CCC(=O)O)C(N)=O)C(C)C)NC(=O)[C@H](CCC(N)=O)NC(=O)[C@H](CC(C)C)NC(=O)[C@H](CC(C)C)NC(=O)[C@H](CCCNC(=N)N)NC(=O)[C@H](CCCNC(=N)N)NC(=O)[C@H](CC(C)C)NC1=O)C(C)C	8.02 µM

For record `c1ccc2sc(SCSc3nc4ccccc4s3)nc2c1` the listed TGI is > 100 µM

For record `CCSc1nc(N)c2cn[nH]c2n1` the listed TGI is 89 µM

For record `Cn1c(/C(C#N)=C/c2ccc3ccccc3c2)cc2ccccc21` the listed TGI is > 100 µM

For record `O=C(/C=C/c1ccsc1)c1ccsc1` the listed TGI is > 100 µM

For record `Cn1cc(-c2csc(-c3cn(C)c4ccccc34)n2)c2cnccc21` the listed TGI is 11.1 µM

For record `Cl[Si]1(Cl)Oc2ccccc2O[Si](Cl)(Cl)Oc2ccccc2O1` the listed TGI is 24.7 µM

For record `CCCCCCCCCCN=C(c1ccc(N(C)C)cc1)c1ccc(N(C)C)cc1` the listed TGI is > 83.6 µM

For record `COc1ccccc1-c1cc(=O)c2ccc(C)nc2[nH]1` the listed TGI is > 100 µM
